experiment: Pharmacokinetics of three diester alkaloids in rat plasma after oral Aconiti Lateralis Radix extract, with or without 7-day P. ginseng pretreatment; assay type: in vivo, Sprague-Dawley rats; settings: Sprague-Dawley, rat, in vivo, po, 1 g/kg, oral Aconiti Lateralis Radix extract 1 g/kg on 8th day, P. ginseng-low (0.1 g/kg oral, 7 days), read-out: Tmax
# Lookup of reported Tmax keyed by entry
Your answer should be a plain number; it is taken to be in h.

compound_structure: CCN1C[C@]2(COC)[C@H](O)C[C@H](OC)[C@@]34[C@@H]5C[C@@]6(O)[C@H](OC(=O)c7ccccc7)[C@@H]5[C@@](OC(C)=O)([C@@H]([C@H](OC)[C@H]23)[C@@H]14)[C@@H](O)[C@@H]6OC
reported: 4

Using known records, supply Tmax for COC[C@@]12CC[C@H](OC)[C@]34C(C([C@H](OC)[C@H]13)[C@]1(OC(C)=O)[C@H]3[C@@H](OC(=O)c5ccccc5)[C@](O)(C[C@H]34)[C@@H](OC)[C@@H]1O)N(C)C2
3.61
